- System: MCF-7 cells stably expressing EF1 HA-ER-α L536R
- assay_summary: cells
- Assay type: cell-based
- study_conditions: EF1 HA-ER-α L536R; Antagonist Mode; +E2; read-out: Potency (EC50; nM)
readout_kind: EC50

- compound: "CCC(=C(c1ccc(O)cc1)c1ccc(OCCN(C)C)cc1)c1ccccc1 [4-Hydroxytamoxifen]"
  experimental_target: "MCF-7 cells stably expressing EF1 HA-ER-α L536R"
  data_value: "19 nM"

###

- Tested on: MCF-7 cells stably expressing UbC HA-ER-α Y537N
- assay_summary: cells
- Type: cell-based
- study_conditions: UbC HA-ER-α Y537N; Agonist Mode; −E2; read-out: Potency (EC50; nM)

- compound: "CCC(=C(c1ccc(O)cc1)c1ccc(OCCN(C)C)cc1)c1ccccc1 [4-Hydroxytamoxifen]"
  unit: "nM"
  EC50: 1.58

###

// reported Efficacy (Emax) per item
- Test system: MCF-7 cells stably expressing UbC HA-ER-α L536P
- assay_summary: cells
- Type: cell-based
- study_conditions: Antagonist Mode, +E2, Day 5 relative to Day 0

- compound: "CCC(=C(c1ccc(O)cc1)c1ccc(OCCN(C)C)cc1)c1ccccc1 [4-Hydroxytamoxifen]"
  Efficacy (Emax): "2.31 ± 0.27"
- compound: "CC/C(=C(/c1ccc(/C=C/C(=O)O)cc1)c1ccc2[nH]ncc2c1)c1ccc(F)cc1Cl"
  Efficacy (Emax): "1.69 ± 0.10"
- compound: "CC1=C(c2cccc(O)c2)[C@H](c2ccc(OCCN3CC(CF)C3)cc2)Oc2ccc(O)cc21"
  Efficacy (Emax): "1.87 ± 0.27"
- compound: "C[C@]12CC[C@@H]3c4ccc(O)cc4C[C@@H](CCCCCCCCC[S+]([O-])CCCC(F)(F)C(F)(F)F)[C@H]3[C@@H]1CC[C@@H]2O (some centres unmarked)"
  Efficacy (Emax): "1.73 ± 0.08"
- compound: "C[C@]12CC[C@@H]3c4ccc(O)cc4CC[C@H]3[C@@H]1CC[C@@H]2O"
  Efficacy (Emax): "5.66 ± 0.52"

###

// reported Efficacy (Emax) per item
- Test system: MCF-7 cells stably expressing UbC HA-ER-α E380Q
- assay_summary: cells
- Assay type: cell-based
- study_conditions: UbC HA-ER-α E380Q; Antagonist Mode; +E2; Day 5 relative to Day 0

- compound: "CC/C(=C(/c1ccc(/C=C/C(=O)O)cc1)c1ccc2[nH]ncc2c1)c1ccc(F)cc1Cl"
  Efficacy (Emax): 1.72
- compound: "C[C@]12CC[C@@H]3c4ccc(O)cc4CC[C@H]3[C@@H]1CC[C@@H]2O"
  Efficacy (Emax): 7.69
- compound: "C[C@]12CC[C@@H]3c4ccc(O)cc4C[C@@H](CCCCCCCCC[S+]([O-])CCCC(F)(F)C(F)(F)F)[C@H]3[C@@H]1CC[C@@H]2O (stereo partly shown)"
  Efficacy (Emax): 1.70
- compound: "CC1=C(c2cccc(O)c2)[C@H](c2ccc(OCCN3CC(CF)C3)cc2)Oc2ccc(O)cc21"
  Efficacy (Emax): 1.61

###

- Tested on: MCF-7 cells stably expressing EF1 HA-ER-α wild-type
- assay_summary: MCF-7 Stable Cell Line Viability (EF1 HA-ER-α series)
- Type: cell-based
- study_conditions: Homo sapiens, MCF7, EF1 HA-ER-α Wild-type; Antagonist Mode; +E2; read-out: Potency (EC50; nM)
readout_kind: EC50 (nM)

- chem_smiles: "CC/C(=C(/c1ccc(/C=C/C(=O)O)cc1)c1ccc2[nH]ncc2c1)c1ccc(F)cc1Cl"
  experimental_target: "MCF-7 cells stably expressing EF1 HA-ER-α wild-type"
  readout_kind: "EC50"
  data_value: 28

###

- Test system: MCF-7 cells stably expressing EF1 HA-ER-α Y537N
- assay_summary: cells
- Type: cell-based
- study_conditions: Homo sapiens, MCF7, read-out: Potency (EC50; nM), EF1 HA-ER-α Y537N; Antagonist Mode; −E2 (Table 27)

- compound: "CC1=C(c2cccc(O)c2)[C@H](c2ccc(OCCN3CC(CF)C3)cc2)Oc2ccc(O)cc21 [Compound 4-23]"
  EC50, nM: 16
- compound: "C[C@]12CC[C@@H]3c4ccc(O)cc4C[C@@H](CCCCCCCCC[S+]([O-])CCCC(F)(F)C(F)(F)F)[C@H]3[C@@H]1CC[C@@H]2O (some centres unmarked) [Fulvestrant]"
  EC50, nM: 9.26

###

- Test system: MCF-7 cells stably expressing UbC HA-ER-α Y537N
- assay_summary: cells
- Type: cell-based
- study_conditions: UbC HA-ER-α Y537N; Antagonist Mode; +E2; Day 5 relative to Day 0
If the reported Efficacy (Emax) equals or exceeds 2, assign label 1. If not, assign label 0.

- compound: "CC1=C(c2cccc(O)c2)[C@H](c2ccc(OCCN3CC(CF)C3)cc2)Oc2ccc(O)cc21"
  class_name: "label 0"
- compound: "CC/C(=C(/c1ccc(/C=C/C(=O)O)cc1)c1ccc2[nH]ncc2c1)c1ccc(F)cc1Cl"
  class_name: "label 0"
- compound: "C[C@]12CC[C@@H]3c4ccc(O)cc4CC[C@H]3[C@@H]1CC[C@@H]2O"
  class_name: "label 1"
- compound: "CCC(=C(c1ccc(O)cc1)c1ccc(OCCN(C)C)cc1)c1ccccc1 [4-Hydroxytamoxifen]"
  class_name: "label 1"
- compound: "C[C@]12CC[C@@H]3c4ccc(O)cc4C[C@@H](CCCCCCCCC[S+]([O-])CCCC(F)(F)C(F)(F)F)[C@H]3[C@@H]1CC[C@@H]2O (some centres unmarked)"
  class_name: "label 0"

###

- Tested on: MCF-7 cells stably expressing UbC HA-ER-α L536R
- assay_summary: cells
- Format: cell-based
- study_conditions: Homo sapiens, MCF7, UbC HA-ER-α L536R; Agonist Mode; −E2; read-out: Potency (EC50; nM)
readout_kind: EC50 (nM)

- chem_smiles: "CC/C(=C(/c1ccc(/C=C/C(=O)O)cc1)c1ccc2[nH]ncc2c1)c1ccc(F)cc1Cl"
  experimental_target: "MCF-7 cells stably expressing UbC HA-ER-α L536R"
  unit: "nM"
  data_value: 0.926

###

// reported EC50 per item
- System: MCF-7 cells stably expressing EF1 HA-ER-α E380Q
- assay_summary: cells
- Type: cell-based
- study_conditions: Homo sapiens, MCF7, read-out: Potency (EC50; nM), EF1 HA-ER-α E380Q; Antagonist Mode; +E2

- compound: "C[C@]12CC[C@@H]3c4ccc(O)cc4C[C@@H](CCCCCCCCC[S+]([O-])CCCC(F)(F)C(F)(F)F)[C@H]3[C@@H]1CC[C@@H]2O (some centres unmarked)"
  EC50: "10.3 nM"
- compound: "CC1=C(c2cccc(O)c2)[C@H](c2ccc(OCCN3CC(CF)C3)cc2)Oc2ccc(O)cc21"
  EC50: "14 nM"

###

- Test system: MCF-7 cells (negative control)
- assay_summary: MCF-7 Stable Cell Line Viability (UbC HA-ER-α series)
- Assay type: cell-based
- study_conditions: Receptor None (MCF-7 negative control), Antagonist Mode, +E2, Day 5 relative to Day 0

- compound: "C[C@]12CC[C@@H]3c4ccc(O)cc4C[C@@H](CCCCCCCCC[S+]([O-])CCCC(F)(F)C(F)(F)F)[C@H]3[C@@H]1CC[C@@H]2O (stereo partly shown)"
  Efficacy (Emax): 1.15
- compound: "CCC(=C(c1ccc(O)cc1)c1ccc(OCCN(C)C)cc1)c1ccccc1 [4-Hydroxytamoxifen]"
  Efficacy (Emax): 1.34
- compound: "CC/C(=C(/c1ccc(/C=C/C(=O)O)cc1)c1ccc2[nH]ncc2c1)c1ccc(F)cc1Cl"
  Efficacy (Emax): 0.97
- compound: "CC1=C(c2cccc(O)c2)[C@H](c2ccc(OCCN3CC(CF)C3)cc2)Oc2ccc(O)cc21"
  Efficacy (Emax): 1.08

###

- Test system: MCF-7 cells (negative control)
- assay_summary: MCF-7 Stable Cell Line Viability (UbC HA-ER-α series)
- Format: cell-based
- study_conditions: Homo sapiens, MCF7, read-out: Potency (EC50; nM), Receptor None (MCF-7 negative control), Antagonist Mode, +E2
readout_kind: EC50 (nM)

- compound: "C[C@]12CC[C@@H]3c4ccc(O)cc4C[C@@H](CCCCCCCCC[S+]([O-])CCCC(F)(F)C(F)(F)F)[C@H]3[C@@H]1CC[C@@H]2O (some centres unmarked) [Fulvestrant]"
  experimental_target: "MCF-7 cells (negative control)"
  data_value: 0.327
- compound: "CC1=C(c2cccc(O)c2)[C@H](c2ccc(OCCN3CC(CF)C3)cc2)Oc2ccc(O)cc21 [Compound 4-23]"
  experimental_target: "MCF-7 cells (negative control)"
  data_value: 0.378

###

- Tested on: MCF-7 cells stably expressing UbC HA-ER-α L536R
- assay_summary: cells
- Assay type: cell-based
- study_conditions: Homo sapiens, MCF7, UbC HA-ER-α L536R; Antagonist Mode; +E2; read-out: Potency (EC50; nM)
readout_kind: EC50

- compound: "CC/C(=C(/c1ccc(/C=C/C(=O)O)cc1)c1ccc2[nH]ncc2c1)c1ccc(F)cc1Cl [Compound 1-3]"
  experimental_target: "MCF-7 cells stably expressing UbC HA-ER-α L536R"
  readout_kind: "EC50"
  data_value: "6.96 nM"
